CYP2D6 (Homo sapiens, UniProt P10635) IC50 data
Sequence (P10635 whole entry): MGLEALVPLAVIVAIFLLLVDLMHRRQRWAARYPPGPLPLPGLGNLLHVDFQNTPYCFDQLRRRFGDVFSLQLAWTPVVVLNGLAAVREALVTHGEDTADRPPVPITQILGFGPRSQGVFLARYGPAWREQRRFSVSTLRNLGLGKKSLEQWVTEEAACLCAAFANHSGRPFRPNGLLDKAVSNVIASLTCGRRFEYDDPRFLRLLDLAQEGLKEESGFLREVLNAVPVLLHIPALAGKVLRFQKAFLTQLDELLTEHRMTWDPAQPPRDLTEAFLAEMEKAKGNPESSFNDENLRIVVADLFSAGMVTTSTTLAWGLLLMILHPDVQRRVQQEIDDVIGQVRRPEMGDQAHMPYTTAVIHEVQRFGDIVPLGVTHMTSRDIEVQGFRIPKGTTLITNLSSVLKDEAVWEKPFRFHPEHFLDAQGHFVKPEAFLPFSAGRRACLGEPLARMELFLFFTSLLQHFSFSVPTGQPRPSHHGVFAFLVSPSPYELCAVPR

IN: Param item = COc1cc2c(cc1OC)-c1c/c(=N\c3c(C)cc(C)cc3C)n(CCNC(N)=O)c(=O)n1CC2 [Ensifentrine, reference compound] ; retrieve measured IC50.
OUT: 41.5 µM

IN: Data request, read-out IC50, for CCOc1cc2c(cc1OC)-c1cc(N(CCCO)c3c(C)cc(C)cc3C)nc(=O)n1CC2 [Compound 60]
OUT: > 50 µM

IN: Consider the compound CCOc1cc2c(cc1OC)-c1cc(N(CCC(=O)O)c3c(C)cc(C)cc3C)nc(=O)n1CC2 [Compound 61] and give its measured IC50.
OUT: > 50 µM

IN: Given CCOc1cc2c(cc1OC)-c1cc(N(c3c(C)cc(C)cc3C)C(CO)CO)nc(=O)n1CC2 [Compound 80] , state its recorded IC50.
OUT: > 50 µM
